target: T1, H1 histamine receptor (Homo sapiens, UniProt P35367); test: GPCR-mediated versus total bioluminescence in U-2OS cells (FIG. 4); assay type: cell-based; settings: 10 μM histamine vs Triton X-100 with 1 mM calcium
T1 construct: expressed in transfected cells; host or cells: U-2OS
T1 sequence (P35367 whole entry): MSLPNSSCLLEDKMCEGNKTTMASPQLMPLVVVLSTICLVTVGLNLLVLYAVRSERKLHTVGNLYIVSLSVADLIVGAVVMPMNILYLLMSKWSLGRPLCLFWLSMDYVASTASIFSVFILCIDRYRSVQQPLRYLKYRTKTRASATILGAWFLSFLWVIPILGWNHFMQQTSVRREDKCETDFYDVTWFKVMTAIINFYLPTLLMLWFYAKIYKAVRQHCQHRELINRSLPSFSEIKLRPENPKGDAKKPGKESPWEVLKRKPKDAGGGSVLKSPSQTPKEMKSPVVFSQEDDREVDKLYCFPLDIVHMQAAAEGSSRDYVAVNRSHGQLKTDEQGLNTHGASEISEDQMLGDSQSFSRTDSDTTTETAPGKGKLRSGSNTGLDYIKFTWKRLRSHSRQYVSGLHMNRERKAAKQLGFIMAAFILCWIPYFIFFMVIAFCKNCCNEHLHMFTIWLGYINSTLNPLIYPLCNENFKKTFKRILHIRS
Listed next: entries and their corresponding GPCR-mediated signal as % of the total signal.

Tell me measured GPCR-mediated signal as % of the total signal for Cyto-clytin wt: Wild type Clytin (wt-Clytin) amino acid sequence, SEQ ID NO:1; cytosolic (protein, listed as Clytia gregaria) MADTASKYAVKLRPNFDNPKWVNRHKFMFNFLDINGDGKITLDEIVSKASDDICAKLGATPEQTKRHQDAVEAFFKKIGMDYGKEVEFPAFVDGWKELANYDLKLWSQNKKSLIRDWGEAVFDIFDKDGSGSISLDEWKAYGRISGICSSDEDAEKTFKHCDLDNSGKLDVDEMTRQHLGFWYTLDPNADGLYGNFVP please. ~3%

Tell me measured GPCR-mediated signal as % of the total signal for Mt-clytin K168D: Mitochondrial K168D modified Clytin, SEQ ID NO:10 (protein) MSVLTPLLLRGLTGSARRLPVPRAKIHSLPPEGKLRPNFDNPKWVNRHKFMFNFLDINGDGKITLDEIVSKASDDICAKLGATPEQTKRHQDAVEAFFKKIGMDYGKEVEFPAFVDGWKELANYDLKLWSQNKKSLIRDWGEAVFDIFDKDGSGSISLDEWKAYGRISGICSSDEDAEKTFKHCDLDNSGDLDVDEMTRQHLGFWYTLDPNADGLYGNFVP please. ~100%

Tell me measured GPCR-mediated signal as % of the total signal for Cyto-clytin K168D: K168D modified Clytin amino acid sequence, SEQ ID NO:9; cytosolic (protein) MADTASKYAVKLRPNFDNPKWVNRHKFMFNFLDINGDGKITLDEIVSKASDDICAKLGATPEQTKRHQDAVEAFFKKIGMDYGKEVEFPAFVDGWKELANYDLKLWSQNKKSLIRDWGEAVFDIFDKDGSGSISLDEWKAYGRISGICSSDEDAEKTFKHCDLDNSGDLDVDEMTRQHLGFWYTLDPNADGLYGNFVP please. ~100%
